Hey, just so you know, these numbers are from the supplement of paper PMC10567573.

So I've got a bunch of sequences here, and I need their protein stability index values.
TEST METHOD NOTES: protein stability index of a GFP-peptide fusion (GPS, HEK-293T) (PSI 1-6); higher = more stable;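 note: 24-mer peptide tiles fused after GFP, lentivirally expressed, FACS-sorted into six equal bins by GFP/DsRed ratio, decoded by Illumina sequencing, PSI is the read-weighted mean bin number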
TEST CONDITIONS: treatment: MLN4924 1 uM, 8 h; c terminus: a fixed tail appended
Could you keep your reply to the number by itself?

Documented protein stability index of HLGCAVYQDMIYAVGGRDDTTELS [KLHL20] : 3.38

Documented protein stability index of KCVVHIHTPAGAAVSAMKCGLLPI [ADD1] : 2.17

Documented protein stability index of LSKSNKPIHTIILNPHVHLVGDDA [CAMK2D] : 2.95

Documented protein stability index of IKSEDMLKILKPSIPLERIHFDSY [FBXO33] : 2.36

Documented protein stability index of PLLCPGCQGQPQGKAVVSHSKGHK [ELOA2] : 4.53

Documented protein stability index of RRTRGPVERAAAAAAAAAGGDAGH [C6orf223] : 5.07

Documented protein stability index of SPALQVMGPAQEAPVAEAWIPQAG [ZNF449] : 4.65

Documented protein stability index of RLVPGGQRPADVPEPGRAGYPAPR [HAGHL] : 4.68

Documented protein stability index of LLIVKLEEDCAWSQELPPPDPGPS [ZNF263] : 2.42

Documented protein stability index of GGLSPVTNLTVTMDQLQGLGSDYE [CDC25A] : 4.48

Documented protein stability index of HAGQGGLFYSAEVEMLCDQAWGSM [CCDC3] : 2.47

Documented protein stability index of MVKEPVEDTDPSTLSFNMSDKYPI [EDARADD] : 4.5

Documented protein stability index of NVLSVNLPDNFTLKEDGMETVPWF [TPH1] : 2.92

Documented protein stability index of CSGVACLVKDNPQRSYFLRIFDIK [WASL] : 2.27

Documented protein stability index of SRNFGVRNQGNFSVVGTVLAATQA [ZC2HC1C] : 3.16

Documented protein stability index of KEVVKKHSQFIGYPITLYLEKERE [HSP90AB1] : 3.32

Documented protein stability index of ICQGIRGLWGTTLTENTAENRELY [PKD2L1] : 3.37

Documented protein stability index of EGYEFCHNRKVLTIFSASNYYEVG [PPEF2] : 2.05

Documented protein stability index of GMPPAGTGMPMMPQQPVMFAQPMM [SNAP91] : 3.2

Documented protein stability index of PAVENKQQIGDAIRMIVRGTLGSC [PLK2] : 3.03

Documented protein stability index of LRSKLCSLYENDCIFDKFECVWNG [PPP2R2B] : 2.42

Documented protein stability index of MQIAVPCAFLLLRLLVGLALATLR [TMEM175] : 2.26

Documented protein stability index of QLYCEKVQGLMKEYLLSFPAGKTP [VPS39] : 2.41

Documented protein stability index of LAMNYKHGDPIPKVEFTEEEIKTW [TPH1] : 4.35

Documented protein stability index of AISSVERYDPQTNEWRMVASMSKR [KLHL20] : 3.99

Documented protein stability index of ALILHQRIHSGEKPYGCVECGKAF [ZNF24] : 2.5

Documented protein stability index of VLERGDSAPATAKENAAAPSPVRA [PALM] : 5.24
